- Protocol Description: NCI Yeast Anticancer Drug Screen. Data for the sgs1 mgt1 strain (AID 161);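 also: 0% = growth of cultures given vehicle only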
- Measurement Conditions: S. cerevisiae sgs1 mgt1 strain, at 50.0 µM (retest, dose inferred, filed as 5.0), hits give high values
The panel holds about 79,000 compounds, 15% with a hit somewhere; the sample as a whole holds those more often.
Kindly supply the reported growth inhibition values for the records listed here.
Give bare numbers, in %.

See these solved cases before continuing.
O=C(O)c1ccccc1[Se][Se]c1ccccc1C(=O)O : 67
OC(c1ccc(Br)cc1)C(Cl)(Cl)Cl (stereo not drawn) : 97
C[C@H]1C/C=C/[C@H]2[C@@H]3O[C@]3(C)[C@@H](C)[C@H]3[C@H](Cc4ccccc4)NC(=O)[C@]32OC(=O)O/C=C/[C@@](C)(O)C1=O : 14
NCC(O)c1cccc(O)c1 (stereo not drawn) : 51
C=C(C)C(=O)OC1CCC2(C)C(CCC3C2CCC2(C)C(c4ccc(=O)oc4)CC4OC432)C1 (stereo not drawn) : 57
BrCc1ccc2ncccc2c1 : 98
CC1CC(C)CC(C)C(O)/C(C#N)=C/C=C/CC(C2CCCC2C(=O)O)OC(=O)CC(O)C(C)C1 (stereo not drawn) : 2

Ask: Supply measured growth inhibition of CCCCCCC1CCC2CCCC(C)N12 (stereo not drawn) in your reply.
Reply: 68

* * *

- Protocol Description: NCI Yeast Anticancer Drug Screen. Data for the cln2 rad14 strain (AID 165);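 also: 0% = growth equal to vehicle treated cultures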
- Measurement Conditions: S. cerevisiae cln2 rad14 strain, at 5.0 µM (retest, dose inferred, filed as 0.5), hits give high values
About 79,000 compounds went through this panel and 15% of them were active in at least one assay; those are over-represented in the sample as a whole.
Assign class by growth inhibition: not lower than 10% means Criterion met; lower than 10% means Criterion not met.

Below are worked cases with known answers.
Nc1c(Cl)cccc1C(=O)O : Criterion not met
ClCCN(CCCl)c1ccc(C=NCCCCN=Cc2ccc(N(CCCl)CCCl)cc2)cc1 : Criterion not met
CC1(C)N([O-])[N+](=O)C1(C)Br (stereo not given) : Criterion met
C[As](C)SCCC(CCCCC(=O)O)S[As](C)C (stereo not given) : Criterion not met

Ask: Item `CCC[CH2][Sn]([F])([CH2]CCC)[O][Sn]([F])([CH2]CCC)[CH2]CCC` with growth inhibition of 10% or above?
Reply: Criterion met

Ask: hey, is growth inhibition for this one >= 10%? `CC1CCS(=O)(=O)CC1.[Cl][Hg][Cl]`
Reply: Criterion met

Ask: Does `O=[N+]([O-])c1cc(S(=O)(=O)F)ccc1Cl` have a reported growth inhibition of at least 10%?
Reply: Criterion met

Ask: Kindly determine if growth inhibition recorded for `Nc1ccc(Cc2ccc(N)c(Cl)c2)cc1Cl` is above or exactly 10%.
Reply: Criterion not met

Ask: Decide: growth inhibition of `CC[CH2][Sn]([CH2]CC)([CH2]CC)[CH2]CCBr` >= 10%?
Reply: Criterion met

Ask: Reported growth inhibition at or above 10%? `Nc1nc(-c2ccccc2)c(-c2ccccc2)[se]1`
Reply: Criterion met

Ask: Does C=Cc1cc(OC)c2c(c1)c(=O)oc1c2cc(OC)c2c(O)ccc(C3OC(C)C(O)C(C)(O)C3O)c21 (stereo not given) have a reported growth inhibition of at least 10%?
Reply: Criterion met

* * *

- Protocol Description: NCI Yeast Anticancer Drug Screen. Data for the CLN2oe strain (AID 163);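 also: 0% = growth of vehicle-only control cultures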
- Measurement Conditions: S. cerevisiae CLN2oe strain, at 11.0 µM, hits give high values
The panel holds about 79,000 compounds, 15% with a hit somewhere; the sample as a whole holds those more often. The source made the active and inactive calls. Cut-off read from the data, not from the text of the source: active = growth inhibition above about 70%; inactive = the rest.
Measured Parameter: growth inhibition

Field: example entries. Status: answers known.
COc1cccc2c1C(=O)c1c(O)c3c(c(O)c1C2=O)C[C@@](O)(C(C)=O)C[C@@H]3OC1CC(N)C(OC2CC(O)C(O)C(C)O2)C(C)O1 (some centres undefined) : -12% (inactive)
O=[N+]([O-])c1cc(S(=O)(=O)F)ccc1Cl : 39% (inactive)
O=C(O)CCCOc1cc(Cl)c(Cl)cc1Cl : -11% (inactive)

Ask: Identify growth inhibition associated with the compound `COC(=O)C1=C(C(=O)OC)C2OC1c1cc3ccccc3cc12`
Reply: 80% (active)

Source listed as PubChem BioAssay (NCI).
